FYI, the data here is from ChEMBL document CHEMBL1144322.

molecular target: Collagenase 3 (Homo sapiens, UniProt P45452); experiment: Binding affinity for matrix metalloprotease 13
Readout kind: pKi
Please express pKi as -log10 of the molar concentration.

CCC1CC(=O)N(c2ccc(Oc3ccccc3)cc2)C12C(=O)NC(=O)NC2=O (single isomer, unassigned)	8.39

In the following, a different compound is considered.
Task item: Consider the compound CCC1CC(=O)N(c2ccc(Oc3ccccc3)cc2)C12C(=O)NC(=O)NC2=O (stereo in doubt) . State its measured pKi.
Reply: 9.27

====

Reported values: Ki for Matrix metalloproteinase-9 (Homo sapiens), one per item.
Give your result in nM as a bare value.

CCC1CC(=O)N(c2ccc(Oc3ccccc3)cc2)C12C(=O)NC(=O)NC2=O (single isomer, unassigned)	7.2

Task item: Return reported Ki for target or system Matrix metalloproteinase-9 (Homo sapiens), item COC(=O)c1ccc(Oc2ccc(N3C(=O)CCC34C(=O)NC(=O)NC4=O)cc2)cc1 .
Reply: 1.2

Task item: Return reported Ki for target or system Matrix metalloproteinase-9 (Homo sapiens), item O=C1NC(=O)C2(CCC(=O)N2c2ccc(Oc3ccc(Cl)cc3)cc2)C(=O)N1 .
Reply: 0.72

Task item: Return reported Ki for target or system Matrix metalloproteinase-9 (Homo sapiens), item CCC1CC(=O)N(c2ccc(Oc3ccccc3)cc2)C12C(=O)NC(=O)NC2=O (stereo in doubt) .
Reply: 0.87

Task item: Return reported Ki for target or system Matrix metalloproteinase-9 (Homo sapiens), item O=C1NC(=O)C2(CCC(=O)N2c2ccc(Oc3ccccc3)cc2)C(=O)N1 .
Reply: 4.7

Task item: Return reported Ki for target or system Matrix metalloproteinase-9 (Homo sapiens), item O=C1NC(=O)C2(CCC(=O)N2c2ccc(Oc3ccc(Oc4ccccc4)cc3)cc2)C(=O)N1 .
Reply: 1.9

Task item: Return reported Ki for target or system Matrix metalloproteinase-9 (Homo sapiens), item O=C1NC(=O)C2(CCC(=O)N2c2ccc(Oc3ccc(C(=O)O)cc3)cc2)C(=O)N1 .
Reply: 0.72
